Please provide measured IC50 for the entries that follow.
- targetOfAssay: Androgen receptor (Homo sapiens, UniProt P10275)
- Sequence (P10275 whole entry): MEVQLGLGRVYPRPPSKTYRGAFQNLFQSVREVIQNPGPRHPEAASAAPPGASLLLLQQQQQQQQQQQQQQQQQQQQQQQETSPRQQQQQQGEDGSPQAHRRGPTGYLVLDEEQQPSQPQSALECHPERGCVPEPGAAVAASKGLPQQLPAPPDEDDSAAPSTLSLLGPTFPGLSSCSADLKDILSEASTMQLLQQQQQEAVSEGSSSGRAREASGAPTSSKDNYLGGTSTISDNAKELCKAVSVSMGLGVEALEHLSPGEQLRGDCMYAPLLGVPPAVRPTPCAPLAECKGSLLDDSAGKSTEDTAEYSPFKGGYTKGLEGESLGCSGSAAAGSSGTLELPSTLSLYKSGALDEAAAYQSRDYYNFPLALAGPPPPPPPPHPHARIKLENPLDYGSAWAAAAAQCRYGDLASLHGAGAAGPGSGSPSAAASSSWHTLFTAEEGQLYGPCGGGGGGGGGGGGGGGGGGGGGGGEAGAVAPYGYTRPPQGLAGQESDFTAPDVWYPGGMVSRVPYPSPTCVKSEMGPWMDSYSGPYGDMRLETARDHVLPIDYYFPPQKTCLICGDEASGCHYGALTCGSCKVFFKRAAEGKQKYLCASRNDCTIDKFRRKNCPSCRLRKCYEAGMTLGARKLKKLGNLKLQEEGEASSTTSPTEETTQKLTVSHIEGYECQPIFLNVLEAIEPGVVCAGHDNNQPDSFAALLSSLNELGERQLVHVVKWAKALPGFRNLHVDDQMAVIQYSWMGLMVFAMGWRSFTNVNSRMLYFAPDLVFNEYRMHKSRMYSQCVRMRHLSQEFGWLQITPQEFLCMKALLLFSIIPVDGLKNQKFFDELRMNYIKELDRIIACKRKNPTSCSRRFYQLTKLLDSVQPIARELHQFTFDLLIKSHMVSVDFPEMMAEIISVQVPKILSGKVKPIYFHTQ

// IC50 lookup, compound = O=c1cc(C(F)(F)F)c2c3c(ccc2[nH]1)NCCO3 , result: 1.5 µM

GET /value?item= C=CCN1c2ccc3[nH]c(=O)cc(C(F)(F)F)c3c2OC[C@H]1CC &field=IC50 returns > 10 µM

Documented IC50 of CC(C)[C@@H]1COc2c(ccc3[nH]c(=O)cc(C(F)(F)F)c23)N1CC(F)(F)F : > 10 µM

Query O=c1cc(C(F)(F)F)c2c3c(ccc2[nH]1)N[C@H](c1ccccc1)CO3 yields IC50 of 1.48 µM

The compound listed as CC[C@@H]1COc2c(ccc3[nH]c(=O)cc(C(F)(F)F)c23)N1CC(C)(C)O shows IC50 equal to > 10 µM

Recorded result, CC[C@@H]1COc2c(ccc3[nH]c(=O)cc(C(F)(F)F)c23)N1CC(C)C , IC50: > 10 µM

IC50 measured on O=c1cc(C(F)(F)F)c2c3c(ccc2[nH]1)N(CC1CC1)C(c1ccccc1)CO3 (stereo not drawn) = > 10 µM

The recorded IC50 for CCCN1c2ccc3[nH]c(=O)cc(C(F)(F)F)c3c2OC[C@H]1CC is > 10 µM

IC50 reported for this compound O=c1cc(C(F)(F)F)c2c3c(ccc2[nH]1)N(CC1CC1)[C@H](c1ccccc1)CO3 : 0.045 µM

Item: CCN1c2ccc3[nH]c(=O)cc(C(F)(F)F)c3c2OC[C@H]1C(C)C | IC50: > 10 µM

Noted for CC[C@@H]1COc2c(ccc3[nH]c(=O)cc(C(F)(F)F)c23)N1 : its IC50 reads 0.084 µM

Measured IC50 of O=c1cc(C(F)(F)F)c2c3c(ccc2[nH]1)N(CC1CC1)[C@@H](c1ccccc1)CO3 : > 10 µM

IC50 measured on CC[C@@H]1COc2c(ccc3[nH]c(=O)cc(C(F)(F)F)c23)N1CC(F)(F)F = > 10 µM

Sample C[C@@H]1COc2c(ccc3[nH]c(=O)cc(C(F)(F)F)c23)N1CC(F)(F)F ; IC50 observed: > 10 µM

Notebook: O=c1cc(C(F)(F)F)c2c3c(ccc2[nH]1)N(CC(F)(F)F)[C@H](Cc1ccccc1)CO3 , IC50 read as > 10 µM

// CCC[C@@H]1COc2c(ccc3[nH]c(=O)cc(C(F)(F)F)c23)N1 : IC50 value = 0.113 µM

Memo: C=CCN1c2ccc3[nH]c(=O)cc(C(F)(F)F)c3c2OC[C@H]1C(C)C , reported IC50: > 10 µM

Form field IC50, entry CC[C@@H]1COc2c(ccc3[nH]c(=O)cc(C(F)(F)F)c23)N1CC : > 10 µM

----------
- targetOfAssay: Androgen receptor (Homo sapiens)
measurementKind: log10(EC50) (log10 of the value in nM)
# log10 transformed; quantity=EC50; unit=nM

Lab book: log10(EC50) of CCCN1c2ccc3[nH]c(=O)cc(C(F)(F)F)c3c2OC[C@H]1CC noted as 2.60

The compound C=CCN1c2ccc3[nH]c(=O)cc(C(F)(F)F)c3c2OC[C@H]1CC showed log10(EC50) equal to 1.71

log10(EC50) reported for this compound O=c1cc(C(F)(F)F)c2c3c(ccc2[nH]1)N(CC(F)(F)F)CCO3 : 2.28

Entry CCN1c2ccc3[nH]c(=O)cc(C(F)(F)F)c3c2OC[C@H]1C , log10(EC50) reported as 2.62

log10(EC50) reading for CC(C)[C@@H]1COc2c(ccc3[nH]c(=O)cc(C(F)(F)F)c23)N1C : 2.44

Kindly note the recorded log10(EC50) for CC(C)C[C@@H]1COc2c(ccc3[nH]c(=O)cc(C(F)(F)F)c23)N1CC(F)(F)F , which is 1.99

Kindly note the recorded log10(EC50) for O=c1cc(C(F)(F)F)c2c3c(ccc2[nH]1)N(CC1CC1)C(c1ccccc1)CO3 (stereo not drawn) , which is 0.54

----------
measurementKind: log10(EC50) (log10 of the value in nM)
Scale type: logarithmic (base 10). Underlying EC50 unit: nM.

Lab entry: Androgen receptor (Homo sapiens) assay, compound CCCN1c2ccc3[nH]c(=O)cc(C(F)(F)F)c3c2OC[C@H]1C , log10(EC50) = 2.61

// returns log10(EC50) for C[C@@H]1COc2c(ccc3[nH]c(=O)cc(C(F)(F)F)c23)N1CC(F)(F)F with Androgen receptor (Homo sapiens); value = 0.73

Given the compound CC[C@@H]1COc2c(ccc3[nH]c(=O)cc(C(F)(F)F)c23)N1CC(C)C and test system Androgen receptor (Homo sapiens), the measured log10(EC50) is 2.36

Param item: CC[C@@H]1COc2c(ccc3[nH]c(=O)cc(C(F)(F)F)c23)N1CC(C)(C)O ; param system: Androgen receptor (Homo sapiens); output log10(EC50): 2.48

Kindly note: Androgen receptor (Homo sapiens), CC[C@@H]1COc2c(ccc3[nH]c(=O)cc(C(F)(F)F)c23)N1CC(F)(F)F , log10(EC50) value reported: 0.00

Entry O=c1cc(C(F)(F)F)c2c3c(ccc2[nH]1)N(CC1CC1)[C@@H](c1ccccc1)CO3 , Androgen receptor (Homo sapiens) data, log10(EC50) value: 1.26

Result for CC(C)[C@@H]1COc2c(ccc3[nH]c(=O)cc(C(F)(F)F)c23)N1CC(F)(F)F , tested on Androgen receptor (Homo sapiens), log10(EC50): 1.30

Androgen receptor (Homo sapiens) assay, compound O=c1cc(C(F)(F)F)c2c3c(ccc2[nH]1)N(CC(F)(F)F)[C@H](Cc1ccccc1)CO3 , recorded log10(EC50) = 1.63

----------
- targetOfAssay: Androgen receptor (Homo sapiens)
- Sequence (P10275 whole entry): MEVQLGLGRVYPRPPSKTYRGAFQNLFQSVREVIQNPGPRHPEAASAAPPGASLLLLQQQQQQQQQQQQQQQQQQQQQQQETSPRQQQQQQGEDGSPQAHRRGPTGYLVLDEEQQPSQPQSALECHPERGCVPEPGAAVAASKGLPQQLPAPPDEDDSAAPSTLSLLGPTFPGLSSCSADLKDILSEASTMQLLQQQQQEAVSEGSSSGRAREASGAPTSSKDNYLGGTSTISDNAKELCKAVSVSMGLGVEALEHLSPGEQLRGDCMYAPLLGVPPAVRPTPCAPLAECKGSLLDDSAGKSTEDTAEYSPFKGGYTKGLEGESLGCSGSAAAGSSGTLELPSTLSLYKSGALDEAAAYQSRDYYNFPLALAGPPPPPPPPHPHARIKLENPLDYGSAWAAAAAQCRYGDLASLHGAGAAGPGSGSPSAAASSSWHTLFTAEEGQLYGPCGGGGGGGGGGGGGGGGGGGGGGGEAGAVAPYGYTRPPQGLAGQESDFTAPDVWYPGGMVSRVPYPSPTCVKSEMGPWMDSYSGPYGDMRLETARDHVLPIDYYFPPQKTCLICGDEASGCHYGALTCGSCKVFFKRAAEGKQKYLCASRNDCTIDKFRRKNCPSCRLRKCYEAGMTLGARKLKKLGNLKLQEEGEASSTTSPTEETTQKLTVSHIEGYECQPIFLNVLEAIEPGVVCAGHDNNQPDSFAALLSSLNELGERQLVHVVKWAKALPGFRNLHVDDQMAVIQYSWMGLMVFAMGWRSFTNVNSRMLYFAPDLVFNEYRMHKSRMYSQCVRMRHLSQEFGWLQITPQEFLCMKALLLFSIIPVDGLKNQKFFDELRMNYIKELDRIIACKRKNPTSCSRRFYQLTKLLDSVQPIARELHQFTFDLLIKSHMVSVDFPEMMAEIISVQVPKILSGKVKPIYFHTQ
pEC50: −log10 of the molar value.
measurementKind: pEC50

Value of measured pEC50 for the entry O=c1cc(C(F)(F)F)c2c3c(ccc2[nH]1)N(CC1CC1)[C@H](c1ccccc1)CO3 : < 5.00

Record summary for O=c1cc(C(F)(F)F)c2c3c(ccc2[nH]1)N[C@H](c1ccccc1)CO3 : reported pEC50 = < 5.00

So for CC[C@@H]1COc2c(ccc3[nH]c(=O)cc(C(F)(F)F)c23)N1C , the logged pEC50 turned out to be < 5.00

Form field pEC50, entry O=c1cc(C(F)(F)F)c2c3c(ccc2[nH]1)NCCO3 : < 5.00

Lab note: CCC[C@@H]1COc2c(ccc3[nH]c(=O)cc(C(F)(F)F)c23)N1 gave pEC50 of < 5.00

Value of pEC50 reported for the compound C[C@@H]1COc2c(ccc3[nH]c(=O)cc(C(F)(F)F)c23)N1C is < 5.00
